Biological target: Photo optimized trastuzumab; meditope enabled (Tmab)
Sequence (chain, as listed by the source, chain 1 of 2): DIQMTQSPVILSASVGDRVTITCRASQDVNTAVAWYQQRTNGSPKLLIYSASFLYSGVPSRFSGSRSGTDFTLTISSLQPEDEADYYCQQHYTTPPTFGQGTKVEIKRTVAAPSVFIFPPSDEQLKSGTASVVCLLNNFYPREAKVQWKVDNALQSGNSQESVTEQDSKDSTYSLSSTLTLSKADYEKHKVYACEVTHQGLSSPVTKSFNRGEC
Sequence (chain, as listed by the source, chain 2 of 2): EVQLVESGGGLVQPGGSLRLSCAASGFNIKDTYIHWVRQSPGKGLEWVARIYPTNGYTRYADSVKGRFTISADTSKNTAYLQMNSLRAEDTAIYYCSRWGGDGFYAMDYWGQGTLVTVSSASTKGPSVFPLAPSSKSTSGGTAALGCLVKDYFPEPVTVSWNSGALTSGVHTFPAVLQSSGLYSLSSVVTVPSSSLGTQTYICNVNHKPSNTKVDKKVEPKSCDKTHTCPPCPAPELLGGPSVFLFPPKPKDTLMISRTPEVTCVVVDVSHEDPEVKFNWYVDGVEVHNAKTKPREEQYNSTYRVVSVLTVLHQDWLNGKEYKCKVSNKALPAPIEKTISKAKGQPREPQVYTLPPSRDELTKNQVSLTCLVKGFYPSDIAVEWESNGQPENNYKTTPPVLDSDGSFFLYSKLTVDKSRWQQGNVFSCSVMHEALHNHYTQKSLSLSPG
Assay: BLI Octet, antibody on anti-human Fc tip, peptide […]
MEASURED METRIC: pKd
Reminder that pKd is minus the log10 of a molar concentration.

CQFDLSTRRLRC (modifications not checked) [Peptide 22: DM1 conjugated cQFD (cQFD-DM1)] has a reported pKd of 8.73

Measured values drawn from patent US20190111149A1 for this set.
